- PROCEDURE_SUMMARY: Brain-to-plasma ratio of Compound C after oral gavage or intranasal administration (Example 5)
- Assay type: in vivo, Sprague-Dawley rats
- CONDITION_PARAMETERS: Sprague-Dawley, rat, plasma, other: intranasal, 1 mg/kg, 1 mg/kg intranasal dose; 30 min; read-out: Plasma Conc.
OBSERVATION_TYPE: concentration at 30 min (ng/mL)
# output: bare number, implied unit ng/mL

What value of concentration at 30 min has been recorded for this entry: CN[C@@H](C)C/C=C/c1cncc(OC(C)C)c1 [Compound C]
78.7

====

- PROCEDURE_SUMMARY: Brain-to-plasma ratio after oral gavage or intranasal administration (Example 4)
- Type: in vivo, Sprague-Dawley rats
- CONDITION_PARAMETERS: Sprague-Dawley, rat, in vivo, inhaled or intranasal, 1 mg/kg, intranasal 1 mg/kg with pargyline; 10 minute time point; two animals; read-out: Brain-to-plasma ratio (average value)
- Protocol: Eight treatment groups of nine rats each were used (see Study Design, Table 6). […] The animals were housed up to three per cage and identified by cage labels. A single room was used for this study. […] Food was withheld from the animals for a minimum of 12 hours before the study and during the study, and was returned at 4 hours post-dose. […] Brain samples were thawed and weighed. […] After homogenation, the volume of each sample was recorded and the samples were frozen at −80° C. until analysis. […]
OBSERVATION_TYPE: Kp at […]
Simply state the number, no unit and no words.

What value of Kp at […] has been recorded for this entry: CNCC/C=C/c1cccnc1
0.89

====

- PROCEDURE_SUMMARY: Brain-to-plasma ratio of Compound C after oral gavage or intranasal administration (Example 5)
- Type: in vivo, Sprague-Dawley rats
- CONDITION_PARAMETERS: Sprague-Dawley, rat, brain/plasma, inhaled or intranasal, 5 mg/kg, 5 mg/kg intranasal dose; 30 min; read-out: Brain-to-Plasma Ratio
OBSERVATION_TYPE: Kp at 0.5 h
Simply state the number, no unit and no words.

What value of Kp at 0.5 h has been recorded for this entry: CN[C@@H](C)C/C=C/c1cncc(OC(C)C)c1
2.63

====

- PROCEDURE_SUMMARY: Brain-to-plasma ratio of Compound C after oral gavage or intranasal administration (Example 5)
- Assay type: in vivo, Sprague-Dawley rats
- CONDITION_PARAMETERS: Sprague-Dawley, rat, brain/plasma, po, 5 mg/kg, 30 min; read-out: 5 mg/kg IN/5 mg/kg PO, Ratio (brain to plasma)
OBSERVATION_TYPE: Kp at 0.5 h
Simply state the number, no unit and no words.

What value of Kp at 0.5 h has been recorded for this entry: CN[C@@H](C)C/C=C/c1cncc(OC(C)C)c1
1.3

====

- PROCEDURE_SUMMARY: Brain-to-plasma ratio of Compound C after oral gavage or intranasal administration (Example 5)
- Format: in vivo, Sprague-Dawley rats
- CONDITION_PARAMETERS: Sprague-Dawley, rat, brain, inhaled or intranasal, 1 mg/kg, 1 mg/kg intranasal dose; 60 min; read-out: Mean Ratio (brain-to-plasma)
OBSERVATION_TYPE: Kp at 1 h
Simply state the number, no unit and no words.

What value of Kp at 1 h has been recorded for this entry: CN[C@@H](C)C/C=C/c1cncc(OC(C)C)c1 [Compound C]
2.4

====

- PROCEDURE_SUMMARY: Brain-to-plasma ratio of Compound C after oral gavage or intranasal administration (Example 5)
- Type: in vivo, Sprague-Dawley rats
- CONDITION_PARAMETERS: Sprague-Dawley, rat, plasma, other: intranasal, 5 mg/kg, intranasal 5 mg/kg; 60 minutes; read-out: Average plasma levels
OBSERVATION_TYPE: concentration at 60 min (ng/mL)
# output: bare number, implied unit ng/mL

What value of concentration at 60 min has been recorded for this entry: CN[C@@H](C)C/C=C/c1cncc(OC(C)C)c1
155

====

- PROCEDURE_SUMMARY: Brain-to-plasma ratio of Compound C after oral gavage or intranasal administration (Example 5)
- Type: in vivo, Sprague-Dawley rats
- CONDITION_PARAMETERS: Sprague-Dawley, rat, brain, inhaled or intranasal, 5 mg/kg, 5 mg/kg intranasal dose; 10 min; read-out: Mean Ratio (brain-to-plasma)
OBSERVATION_TYPE: Kp at […]

What value of Kp at […] has been recorded for this entry: CN[C@@H](C)C/C=C/c1cncc(OC(C)C)c1
1.2

====

- PROCEDURE_SUMMARY: Brain-to-plasma ratio of Compound C after oral gavage or intranasal administration (Example 5)
- Assay type: in vivo, Sprague-Dawley rats
- CONDITION_PARAMETERS: Sprague-Dawley, rat, plasma, other: intranasal, 1 mg/kg, intranasal 1 mg/kg; 60 minutes; read-out: Average plasma levels
OBSERVATION_TYPE: concentration at 60 min (ng/mL)
# output: bare number, implied unit ng/mL

What value of concentration at 60 min has been recorded for this entry: CN[C@@H](C)C/C=C/c1cncc(OC(C)C)c1
103

====

- PROCEDURE_SUMMARY: Brain-to-plasma ratio of Compound C after oral gavage or intranasal administration (Example 5)
- Assay type: in vivo, Sprague-Dawley rats
- CONDITION_PARAMETERS: Sprague-Dawley, rat, brain, other: intranasal, 1 mg/kg, 1 mg/kg intranasal dose; 10 min; read-out: Brain Conc.
OBSERVATION_TYPE: concentration at 10 min (ng/g)
# output: bare number, implied unit ng/g

What value of concentration at 10 min has been recorded for this entry: CN[C@@H](C)C/C=C/c1cncc(OC(C)C)c1
238

====

- PROCEDURE_SUMMARY: Permeation across cultured human respiratory epithelium (EpiAir tissue), apical-to-basolateral Papp
- CONDITION_PARAMETERS: human, pH 7.4, Papp, Treatment 2: Compound B assayed with controls + MAO inhibitor Pargyline; Average ± STD
OBSERVATION_TYPE: Papp at 120 min (×10⁻⁶ cm/s)
# output: bare number, implied unit ×10⁻⁶ cm/s

What value of Papp at 120 min has been recorded for this entry: CNCC/C=C/c1cccnc1 [Compound B]
25.4

====

- PROCEDURE_SUMMARY: Brain-to-plasma ratio of Compound C after oral gavage or intranasal administration (Example 5)
- Type: in vivo, Sprague-Dawley rats
- CONDITION_PARAMETERS: Sprague-Dawley, rat, brain homogenate, oral, 5 mg/kg, 5 mg/kg oral dose; 30 min; read-out: Brain Conc.
- Procedure: Three treatment groups of nine rats each were used (see Study Design, Table 9). […] The animals were housed up to three per cage and identified by cage labels. A single room was used for this study. […] Food was withheld from the animals for a minimum of 12 hours before the study and during the study, and was returned at 4 hours post-dose. […] Brain samples were thawed and weighed. […] After homogenation, the volume of each sample was recorded and the samples were frozen at −80° C. until analysis. […]
OBSERVATION_TYPE: concentration at 30 min (ng/mL)
# output: bare number, implied unit ng/mL

What value of concentration at 30 min has been recorded for this entry: CN[C@@H](C)C/C=C/c1cncc(OC(C)C)c1 [Compound C]
205

====

- PROCEDURE_SUMMARY: Brain-to-plasma ratio of Compound C after oral gavage or intranasal administration (Example 5)
- Format: in vivo, Sprague-Dawley rats
- CONDITION_PARAMETERS: Sprague-Dawley, rat, plasma, other: intranasal, 5 mg/kg, 5 mg/kg intranasal dose; 60 min; read-out: Plasma Conc.
OBSERVATION_TYPE: concentration at 60 min
Please answer in the form of a number followed by its unit of measurement.

What value of concentration at 60 min has been recorded for this entry: CN[C@@H](C)C/C=C/c1cncc(OC(C)C)c1
0.17 µg/mL

====

- PROCEDURE_SUMMARY: Brain-to-plasma ratio after oral gavage or intranasal administration (Example 4)
- Assay type: in vivo, Sprague-Dawley rats
- CONDITION_PARAMETERS: Sprague-Dawley, rat, in vivo, intranasal, 0.1 mg/kg, Brain-to-plasma ratio
OBSERVATION_TYPE: Kp at 0.5 h
Simply state the number, no unit and no words.

What value of Kp at 0.5 h has been recorded for this entry: CN[C@@H](C)C/C=C/c1cncc(OC)c1
5.52

====

- PROCEDURE_SUMMARY: Brain-to-plasma ratio of Compound C after oral gavage or intranasal administration (Example 5)
- Assay type: in vivo, Sprague-Dawley rats
- CONDITION_PARAMETERS: Sprague-Dawley, rat, brain, other: intranasal, 5 mg/kg, intranasal 5 mg/kg; 60 minutes; read-out: Average brain levels
OBSERVATION_TYPE: concentration at 60 min

What value of concentration at 60 min has been recorded for this entry: CN[C@@H](C)C/C=C/c1cncc(OC(C)C)c1
382 ng/g

====

- PROCEDURE_SUMMARY: Brain-to-plasma ratio of Compound C after oral gavage or intranasal administration (Example 5)
- Type: in vivo, Sprague-Dawley rats
- CONDITION_PARAMETERS: Sprague-Dawley, rat, brain, po, 5 mg/kg, oral gavage 5 mg/kg; 60 minutes; read-out: Average brain levels
OBSERVATION_TYPE: concentration at 60 min (ng/g)
# output: bare number, implied unit ng/g

What value of concentration at 60 min has been recorded for this entry: CN[C@@H](C)C/C=C/c1cncc(OC(C)C)c1
571
